TEST_PROTOCOL: gradient 5% acetonitrile 3 min, to 50% in 2 min, to 85% in 15 min, held 3 min, 100 µL/min
CONDITION_DESCRIPTION: column: Zorbax Extend-C18 2.1 x 50 mm; eluents: water / acetonitrile, 0.1% formic acid
For each of the compounds below, state its RP-LC retention time.
Answers are plain numbers, in s.

Below, 4 compounds whose answers are already recorded.
| COMPOUND | UNITS | RP-LC retention time |
| --- | --- | --- |
| O=C(Nc1ccc(F)cc1F)NC1CCN(c2ccc(F)cc2)C1=O (stereo not given) | s | 823 |
| O=C(NCc1ccc(F)cc1)N1CCN(c2nc3cccnc3n(Cc3ccccc3)c2=O)CC1 | s | 1020 |
| Cc1ccc2cc(CCC(=O)NCCN3CCCCCC3)c(=O)[nH]c2c1 | s | 628 |
| CCN1C(=O)C2(CCN(C(=O)NC3CCCCC3)CC2)c2ccccc21 | s | 867 |

Now consider the entry below.
Consider the compound CCCS(=O)(=O)N1CCC(c2noc(-c3cccnc3)n2)C1 (stereo not given) and give its recorded RP-LC retention time.
730

----------
TEST_PROTOCOL: gradient 5% acetonitrile 3 min, to 50% in 2 min, to 85% in 15 min, held 3 min, 100 µL/min
CONDITION_DESCRIPTION: column: Zorbax Extend-C18 2.1 x 50 mm; eluents: water / acetonitrile, 0.1% formic acid
Give RP-LC retention time for every item shown.
Record the result as number plus unit.

Observe how each entry below is paired with its result.
| COMPOUND | DATA_VALUE |
| --- | --- |
| COc1ccc2c(c1)C1(CCN(C(=O)Cc3cccc(F)c3)C1)C(=O)N2 (stereo not given) | 740 s |
| O=C(c1cccc(C(F)(F)F)c1)N1CCN(c2nc(CN3CCOCC3)cs2)CC1 | 644 s |
| CCC(Oc1ccccc1)C(=O)Nc1nc(-c2ccc(Cl)cc2)cs1 (stereo not given) | 1240 s |
| CCC(=O)N1CCc2cc(N3CC(C(=O)Nc4cc(C)ccc4F)CC3=O)ccc21 (stereo not given) | 768 s |

Hi! Can you tell me RP-LC retention time for each of these compounds?
1. CCn1cc(-c2nc(CC(=O)Nc3ccccc3Cl)cs2)c2cccnc21
2. COc1cccc(C2CC(c3ccc(F)cc3)=NC3(CCN(C(C)=O)CC3)N2)c1O (stereo not given)
3. Cc1ccc(N2CC(C(=O)N(C)C)CC2=O)cc1 (stereo not given)
4. CCC(=O)N1CCc2cc(N3CC(C(=O)NC(C)c4ccccn4)CC3=O)ccc21 (stereo not given)
5. CO[C@H]1CN(C2CCN(S(=O)(=O)Cc3ccccc3)CC2)[C@H]1c1ccncc1
6. COCCN1CCC2(CC1)CN(Cc1ccc(OC)c(C)c1)Cc1ccccc1O2

1: 1050 s; 2: 656 s; 3: 673 s; 4: 585 s; 5: 612 s; 6: 598 s

# batch: return RP-LC retention time for each of the 6 compounds below
1. O=C(NCCc1csc(-c2ccc(F)cc2)n1)c1ccc2nsnc2c1
2. COc1ccc(N2CC(c3noc(-c4cc(F)ccc4F)n3)CC2=O)cc1 (stereo not given)
3. CCn1cc(-c2nc(CC(=O)Nc3ccc(OC)cc3)cs2)c2cccnc21
4. Cc1ccc(-c2ccc3nn(CC(=O)Nc4ccc(C)cc4Br)c(=O)n3n2)cc1
5. CC(C)C(=O)Nc1nc(-c2ccc(F)cc2)cs1
6. Cc1ccc(S(=O)(=O)N2CCC(CCNC(=O)NC3CCCCC3)CC2)cc1

1: 876 s; 2: 849 s; 3: 858 s; 4: 960 s; 5: 916 s; 6: 905 s

I have 3 compounds here; please give me RP-LC retention time for each one.
1. Cc1cnn(Cc2nc(-c3ccc(NC(=O)CC4CCCC4)cc3)oc2C)c1
2. CCc1ccc(N2C(=O)Nc3ccccc3C2(O)C(=O)NCCN(CC)CC)cc1 (stereo not given)
3. Cc1ccc2c(=O)c(C(=O)N3CCOCC3)cn(CC(=O)NCCC3=CCCCC3)c2n1

1. 930 s
2. 575 s
3. 713 s

Supply reported RP-LC retention time belonging to this compound: CCOc1ccccc1NC(=O)N1CCN(c2cc(C)nc(N3CCCC3)n2)CC1
692 s

----------
TEST_PROTOCOL: gradient 5% acetonitrile 3 min, to 50% in 2 min, to 85% in 15 min, held 3 min, 100 µL/min
CONDITION_DESCRIPTION: column: Zorbax Extend-C18 2.1 x 50 mm; eluents: water / acetonitrile, 0.1% formic acid
READOUT_NAME: RP-LC retention time (s)
Give bare numbers, in s.

// solved cases for RP-LC retention time follow
| SMILES_ENTRY | UNITS | DATA_VALUE |
| --- | --- | --- |
| CN(C1CCCCC1)S(=O)(=O)c1ccc(C(=O)Nc2nc3c(s2)Cc2ccccc2-3)cc1 | s | 1260 |
| Cc1cccc(-c2nc(C)c3c(n2)N(Cc2cccnc2)C(=O)CC3)c1 | s | 722 |
| CNC(=O)C1CCN(c2nc3ccc(-c4ccc(F)cc4)nc3s2)CC1 | s | 824 |
| O=C1NC2(CCN(C(=O)Nc3ccc4c(c3)OCO4)CC2)Nc2c(Cl)cccc21 | s | 682 |
| CCc1nn2c(CNS(=O)(=O)c3ccc(Cl)cc3C)c(-c3ccccc3)nc2s1 | s | 1050 |

State recorded RP-LC retention time for all listed molecules.
1. COc1ccc(C(=O)Nc2ccc3c(c2)Sc2ncccc2C(=O)N3C)cc1OC
2. O=C(CSc1nc2ncccc2[nH]1)Nc1ccccc1C(F)(F)F
3. O=C(Nc1ccc(N2CCN(C3CCCC3)C2=O)nc1)c1ccc(F)c(F)c1
4. COc1ccc(OCc2nc(-c3ccc4ncn(C(C)C)c4c3)no2)cc1

[712, 649, 916, 727]

----------
Assignment: determine reported RP-LC retention time for the given compounds.
TEST_PROTOCOL: gradient 5% acetonitrile 3 min, to 50% in 2 min, to 85% in 15 min, held 3 min, 100 µL/min
CONDITION_DESCRIPTION: column: Zorbax Extend-C18 2.1 x 50 mm; eluents: water / acetonitrile, 0.1% formic acid
Answers are plain numbers, in s.

Some solved cases for reference:
| COMPOUND | UNITS | RP-LC retention time |
| --- | --- | --- |
| C[C@H](NC(=O)C1CCCN(S(=O)(=O)c2ccc(F)cc2)C1)C(=O)O (stereo not given in full) | s | 669 |
| COc1ccc2c(c1)C1(CCN(C(=O)CCc3ccccc3)C1)C(=O)N2C (stereo not given) | s | 850 |

For every item below, please supply its RP-LC retention time.
1. CCC(C)C(=O)N1CC(N(Cc2ccncc2)CC(C)C)C1 (stereo not given)
2. C=CCn1c(C)c(CC(=O)Nc2cccc(C)c2)c(=O)n2nc(-c3ccc(C)cc3)nc12
3. Cc1c(C(=O)Nc2ccc(CC(=O)NC3CC3)cc2)cnn1-c1ccccc1
4. COc1ccccc1NC(=O)C1CCN(c2cc(N3CCSCC3)ncn2)CC1
5. O=C(NCC1(c2cccs2)CCOCC1)c1ccccc1F
6. COC(=O)c1cnc2nc(C)ccc2c1NCc1cccc(Cl)c1

[635, 989, 675, 684, 763, 733]

For every item in the list below, what is its measured RP-LC retention time?
1. CC(C)n1c(=O)c(NCCc2ccc(Cl)cc2)nc2ccncc21
2. CC1CCCCN1CCCNC(=O)CN1C(=O)CCn2nc(-c3cn(C)c4ccccc34)cc21 (stereo not given)

727
564

----------
TEST_PROTOCOL: gradient 5% acetonitrile 3 min, to 50% in 2 min, to 85% in 15 min, held 3 min, 100 µL/min
CONDITION_DESCRIPTION: column: Zorbax Extend-C18 2.1 x 50 mm; eluents: water / acetonitrile, 0.1% formic acid
Provide the reported RP-LC retention time of each item.
Your reply should be a number followed by the unit it is expressed in.

Some entries whose results are on file:
| COMPOUND | RP-LC retention time |
| --- | --- |
| CCCCS(=O)(=O)c1cc2c(cc1NC(=O)c1ccc(Br)cc1)n(C)c(=O)n2C | 1020 s |
| Nc1c(C(=O)Nc2ccc([N+](=O)[O-])cc2)oc2ccccc12 | 880 s |
| CCOC(=O)Cn1c(C2CC(=O)N(c3ccc(OC)cc3)C2)nc2ccccc21 (centres undefined) | 762 s |

Can you give me RP-LC retention time for all of these, one by one?
1. Cc1cc(C)c2c(-n3cccc3)nn(CC(=O)NCC(C)c3ccccc3)c2n1 (centres undefined)
2. Cc1cccc(CN2CCc3nc(N4CCN(c5ccccc5F)CC4)ncc3C2)c1
3. COc1ccc(OC)c(CNC(=O)c2cn3ccc(C)cc3n2)c1
4. Cc1c(Cl)ccc2c(=O)c3c([nH]c12)CCN(CC(=O)Nc1cccc(Cl)c1)C3

1. 1040 s
2. 810 s
3. 541 s
4. 704 s

Items follow; give RP-LC retention time for each.
1. N#Cc1cccc(C(=O)NC2CCN(c3ccc(F)cc3)C2=O)c1 (centres undefined)
2. O=C(NCc1ccco1)c1ccc(Cn2nc(N3CCN(c4ccccc4)CC3)ccc2=O)o1

1. 768 s
2. 780 s
